Data provenance is the supplement of paper PMC9170038.

Quick reference for apparent KD of MS2 coat protein among some sequences
Test system: MS2 coat protein
Experiment: apparent KD of MS2 coat protein; designed switch direction (-1 OFF switch, 1 ON switch): -1; higher = weaker reporter binding
Conditions Used: input ligand: none
Express your answer in nM, writing the number without its unit.

Guide cases for apparent KD of MS2 coat protein, answers given:
[
  {
    "Biosequence": "GAAAACUCAGGAUAUGCGUGAGAAAACUUGAGGAUCACCCAAGUGUGGUCCCGAUCUAAAGCAGAAGGGAGCAAAA [Lebidiraus] (Eterna round: R97, puzzle: Exclusion 5)",
    "Unit Symbol": "nM",
    "apparent KD of MS2 coat protein": 353
  },
  {
    "Biosequence": "UUAAUACAUGUAGGAUAUGCGUGGCGAAGCUAUGCAGAAGGACAUGAGGAUCACCCAUGUCUAUGCGUCCGCGUACGGAUGCAA [JL Eng1 1.21 mod 6] (Eterna round: R96, puzzle: Exclusion NG 1)",
    "Unit Symbol": "nM",
    "apparent KD of MS2 coat protein": 16.4
  },
  {
    "Biosequence": "UAUUAGCAAGCGAGAUCCCACAUGAGGAUCACCCAUGUGCUCGUCUUAUAUAAGGUACUGUACGAUAGUACGGUACC [Mat - Sensor, turn-off var - Eli Mod - D28] (Eterna round: R97, puzzle: Sensor, turn-off variant 1)",
    "Unit Symbol": "nM",
    "apparent KD of MS2 coat protein": 14.6
  },
  {
    "Biosequence": "GUCAUCACACAUGGGAUCAACAUGAGGAUCACCCAUGUUGCCAAGUUGUUUGCACGUCUUAUAAUACGUUUUUCGAG [Mod-Jxg] (Eterna round: R97, puzzle: Sensor, turn-off variant 1)",
    "Unit Symbol": "nM",
    "apparent KD of MS2 coat protein": 28.2
  },
  {
    "Biosequence": "GACAUGAGGAUCACCCAUGUAAGGGAUGAACUUCUGGGUAGCUAGGAUAUGGCUACAAAGGUGGACCAGAAGGAGCGUACCCUU [Amaqura] (Eterna round: R96, puzzle: Exclusion NG 3)",
    "Unit Symbol": "nM",
    "apparent KD of MS2 coat protein": 28.6
  }
]

For AAGAAGAAGUAAGGAUAUGAAGAUCUGGUGGUGACAUGAGGAUCACCCAUGUGAAAACGAUGAGAUCAGAAGGUACAAGAAGAA [AK ExNG2-3.4] (Eterna round: R96, puzzle: Exclusion NG 2) , write its apparent KD of MS2 coat protein.
77.8

Report apparent KD of MS2 coat protein, nothing else, for this sequence: AUCGUGUGAGGAUAUCGAUCAUGGAGGUCUAGGUCCAUGCGCGAGAAGGCACAUGAGGAUCACCCAUGUAAUGG [jl-ex4-4.30 ViennaUCT mod] (Eterna round: R97, puzzle: Exclusion 4)
66.5

Provide apparent KD of MS2 coat protein value for the following sequence: UAUAUAUAGUAAGGAUAUGUAUAUAUUUUAUGAACAGAAGGUACUGACAUGAGGAUCACCCAUGUUUUAGUGUGGGCAUGUAGA [JMF's solution 70] (Eterna round: R96, puzzle: Exclusion NG 1)
64.8

Read the entry CUCGCUGUGGUUAGGAUAUGUGGGUUAGCAGGCGCAUAGAAGGAACAUGAGGAUCACCCAUGUGGGUUGGUGCG [Eternabot (L2) Solution 88] (Eterna round: R97, puzzle: Brourd's mod of Exclusion 4) and write its reported apparent KD of MS2 coat protein.
62.7

Please give measured apparent KD of MS2 coat protein of the following entry: GUUGUGUUAGGAUAUAACAACUACUAAUAAAUUAGUAGUUGUUAGAAGGAACAUGAGGAUCACCCAUGUAUGAC [-21.3, -20.2 kcal, A 36%] (Eterna round: R97, puzzle: Exclusion 4)
30.5

Hello, please tell me recorded apparent KD of MS2 coat protein for this one: AAAUUGUGAGGAUAUCCAAUAUAUGACAUGAGGAUCACCCAUGUUUCCACUCGUACCUCCGGAGAAGGCACUUAAA [Ex5 #44] (Eterna round: R97, puzzle: Exclusion 5)
25.5

Output measured apparent KD of MS2 coat protein for this item: GCAGCAUAGUCGGAAUACGACAUACAUGAGGAUCACCCAUGUCAGGAUAUGGUCUGGAUUACAGGCCAGAAGGGACAAAGCUGC [Eli exng3 - 007] (Eterna round: R96, puzzle: Exclusion NG 3)
20.1

For the sequence AGUUCCUUUGUGAGGAUAUCAAUGAUAUAACUGUAUGAGAAGGCACAUGAGGAUCACCCAUGUUUGUUGCUGCA [Eternabot (L1) Solution 78] (Eterna round: R97, puzzle: Brourd's mod of Exclusion 4) , give its reported apparent KD of MS2 coat protein.
20.1

Provide one value: measured apparent KD of MS2 coat protein of AAAAGCGUCACAGGAUAUUCAGGCGACGCCAAAGAAGAAGGGUGAGGCACAAACAUGAGGAUCACCCAUGUGGUCCUCUCCCGA [Vebiquti] (Eterna round: R96, puzzle: Exclusion NG 1)
15.6

Determine its reported apparent KD of MS2 coat protein: ACAUGAGGGAAGGGAGGAGGGACAUGAGGAUCACCCAUGUCUCAGGAUAUAGAAGAAGAAAGAAACUAGAAGGGAGAGGAGGGU [Kawasakiqro] (Eterna round: R96, puzzle: Exclusion NG 3)
25
